Just for reference, PubChem BioAssay AID1159580 is where these values come from.

Experiment: chemical genetic growth profiling, strain panel (AID 1159580);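 note: tested at 20 µM; growth read once vehicle control cultures reached saturation at 30 °C; lower values mean less growth of the strain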
Settings: S. cerevisiae deletion strains, growth OD, locus YHR030C, strain SLT2
Among all 5,500 compounds or so, about 2,000 (36%) were called active. Not shown: some 18% with an inconclusive outcome. Cut-off read from the data, not from the text of the source: active = normalized growth mostly below about 0.91 (no sharp cut-off); inconclusive = no clear call, values can overlap the other calls; inactive = mostly above about 0.92. The list shows a part of the results.
Permitted responses: Y for active, N for inactive

Some solved entries appear below for comparison.
>>> discrete_label("Cc1oc2c(F)c(F)c(F)c(F)c2c1C(=O)ONC(N)c1ccc(OS(=O)(=O)N(C)C)cc1 (stereo not given)")
"N"
>>> discrete_label("N#C/C(=C\\c1ccccc1Sc1ccc(Cl)cc1)S(=O)(=O)c1ccccn1")
"N"
>>> discrete_label("COc1ccc(-c2c(O)c3cc4c(c(CC=C(C)C)c3oc2=O)OC(C)(C)CC4)cc1")
"N"
>>> discrete_label("O=C(/C=C/c1ccccc1)O[C@H]1C[C@@H](O)[C@]2(O)C=CO[C@@H](O[C@@H]3O[C@H](CO)[C@@H](O)[C@H](O)[C@H]3O)[C@H]12")
"N"
>>> discrete_label("CC(=O)OCc1ccc(/C=C(\\C#N)S(=O)(=O)c2ccc(Cl)cc2)o1")
"N"
>>> discrete_label("CN1C(=O)CN=C(c2ccccc2)c2ccccc21")
"N"
>>> discrete_label("O=C(Oc1cc(Cl)c(Cl)cc1Cl)C1c2ccccc2Oc2ccccc21")
"Y"
>>> discrete_label("FC(F)(F)Oc1ccc(-c2noc(CSc3ccc(Br)cc3)n2)cc1")
"Y"

For `O=C(O)c1cnn(-c2ccccc2)c1C(F)(F)F` , which call appears in the assay record?
N

For `N#Cc1cnn(-c2ccccc2)c1-n1cccc1` , which call appears in the assay record?
Y
